Entries and their measured inhibition of growth at 200 µM follow.
tested on: Escherichia coli; test: Antibacterial activity against Escherichia coli DH5[alpha] assessed as growth inhibition at late exponential phase at 200 uM after 16 hrs; type: functional; conditions: read-out: GI
# unit: % | format: bare number

These recorded examples may help you get a feel for the data.
{"columns": ["Smiles Entry", "inhibition of growth at 200 µM / %"],
 "data": [
  ["COc1cc(OC)c2c(-c3ccc(Cl)cc3)c(C(=O)c3nnc(N(C)C)s3)[nH]c2c1", 10.6],
  ["COc1cc(OC)c2c(-c3ccc(Cl)cc3)c(C(=O)C(=O)NNC(=S)N(C)C)[nH]c2c1", 47]
]}

## Input Provide inhibition of growth at 200 µM, tested on Escherichia coli, for COc1cc(OC)c2c(-c3ccc(Br)cc3)c(C(=O)C(=O)NNC(=S)N(C)C)[nH]c2c1 .
## Output 70

## Input Provide inhibition of growth at 200 µM, tested on Escherichia coli, for COc1cc(OC)c2c(-c3ccc(Br)cc3)c[nH]c2c1C(=O)NNC(=O)c1c(OC)cc(OC)c2c(-c3ccc(Br)cc3)c[nH]c12 .
## Output 37.4

## Input Provide inhibition of growth at 200 µM, tested on Escherichia coli, for COc1cc(OC)c2c(-c3ccc(Br)cc3)c(C(=O)c3nnc(N(C)C)s3)[nH]c2c1 .
## Output 16.8
